Source: ChEMBL document CHEMBL4732044

- procedure-details: Clearance in Sprague-Dawley rat at 2 mg/kg, iv up to 24 hrs by LC-MS/MS analysis
- condition-set: in vivo
measured-quantity: clearance (mL/min/kg)
Only the number, expressed in mL/min/kg, is required.

Which value of clearance has been reported for CN(C)CCCNc1nc(-c2[nH]c3ccccc3c2C=O)nc2ccccc12 in the records?
125

====

- procedure-details: MRT(0 to infinity) in Sprague-Dawley rat at 2 mg/kg, iv up to 24 hrs by LC-MS/MS analysis
- condition-set: in vivo
measured-quantity: MRT inf (h)
Write the value in h as a bare number.

Which MRT inf reading was recorded for the compound CN(C)CCCNc1nc(-c2[nH]c3ccccc3c2C=O)nc2ccccc12 ?
3.56

====

- procedure-details: Clearance in Sprague-Dawley rat at 2 mg/kg, iv up to 24 hrs by LC-MS/MS analysis
- Format: ADME, organism-based
- condition-set: in vivo
measured-quantity: clearance (mL/min/kg)
API: value field is a number in mL/min/kg; no unit string.

Item COc1ccc2[nH]c(-c3nc(NCCCCN4CCCC4)c4ccccc4n3)c(C=O)c2c1 has what recorded clearance?
107

====

Answer each item with its documented Cmax.
- procedure-details: Cmax in Sprague-Dawley rat at 5 mg/kg, po up to 24 hrs by LC-MS/MS analysis
- Type: ADME, organism-based
- Design: route oral, dose 5 mg/kg, time <=24
- condition-set: in vivo
Use ng/mL as the unit, but write only the number.

I would be grateful if you could share the reported Cmax for COc1ccc2[nH]c(-c3nc(NCCCCN4CCCC4)c4ccccc4n3)c(C=O)c2c1 .
37.1

And then CN(C)CCCNc1nc(-c2[nH]c3ccccc3c2C=O)nc2ccccc12 , what is it?
23.8

====

- procedure-details: Intrinsic clearance in Sprague-Dawley rat liver microsomes assessed as rate constant […] up to 60 mins in presence of NADPH by LC-MS/MS analysis
- Assay type: ADME, Microsome
- condition-set: read-out: CLH
Note to self: values exactly at 4 µL/min/mg are t. So microsomal CLint at or above 4 µL/min/mg is t, below is f.

Could you please find out whether COc1ccc2[nH]c(-c3nc(NCCN4CCCC4)c4ccccc4n3)c(C=O)c2c1 has microsomal CLint that meets 4 µL/min/mg or exceeds it?
t

COc1ccc2[nH]c(-c3nc(NCCCCN4CCCC4)c4ccccc4n3)c(C=O)c2c1 ?
f

Further, for CN(C)CCCNc1nc(-c2[nH]c3ccccc3c2C=O)nc2ccccc12 ?
t

Also O=Cc1c(-c2nc(NCCCCN3CCCC3)c3ccccc3n2)[nH]c2ccccc12 , if possible.
f

Try CCN(CC)CCCCNc1nc(-c2[nH]c3ccc(OC)cc3c2C=O)nc2ccccc12 next.
f

====

- procedure-details: AUC(0 to t) in Sprague-Dawley rat at 2 mg/kg, iv up to 24 hrs by LC-MS/MS analysis
- Assay type: ADME, organism-based
- Design: route intravenous, dose 2 mg/kg, time <=24
- condition-set: in vivo
measured-quantity: AUC(0-t) at 24 h (ng·h/mL)
Quick reminder: number only, in ng·h/mL, skip the unit.

Given the entry COc1ccc2[nH]c(-c3nc(NCCCCN4CCCC4)c4ccccc4n3)c(C=O)c2c1 , report its measured AUC(0-t) at 24 h.
308
